test system: SF-268 CNS; assay: NCI tumour cell line growth inhibition, 48 h
Measured quantity: TGI (µM)
Quick note: give the figure in µM, leave out the unit.

The cases that follow already have their TGI on record.
INSERT INTO results (molecule, measured_quantity, meas_value) VALUES
  ('CS(=O)(=O)c1ccc(Cl)c([N+](=O)[O-])c1', 'TGI', 36.3),
  ('COC(=O)C1=C(C)NC(C)=C(C(=O)OC)C1c1cccc(N=O)c1', 'TGI', 30.8),
  ('CCOc1ccc(NCC2CC/C(=C\C=C\c3ccccc3)C2=O)cc1 (stereo unspecified)', 'TGI', 24.2),
  ('CC(O)CNC1=CC(=O)C(=O)c2ccccc21 (stereo unspecified)', 'TGI', 33.9),
  ('C=C1C(=O)O[C@@H]2C[C@@]3(C)CC(=O)C=C(C)[C@@H]3C[C@H]12', 'TGI', 42.5);

GET /values?item= Cc1cc(O)c2c(c1)C(O)(c1ccc3c(c1O)C(=O)c1c(O)cc(C)cc1C3(O)C1OC(CO)C(O)C(O)C1O)c1cccc(O)c1C2=O (stereo unspecified) &system= SF-268 CNS returns TGI: 36

GET /values?item= `CC(C)(C)c1cc(/C=C2/NC(=O)NC2=O)cc(C(C)(C)C)c1O` &system= SF-268 CNS returns TGI: 28.8

----------
Each entry below carries its measured GI50, system: U251 CNS.

The cases that follow already have their GI50 on record.
INSERT INTO assay_data (smiles_notation, meas_value) VALUES
  ('Clc1ccc([O][In]([O]c2ccc(Cl)cn2)[O]c2ccc(Cl)cn2)nc1', '> 100 µM'),
  ('COc1ccc(-c2cc(-c3ccc(Cl)cc3)c(C#N)c(=O)n2CCCCC(=O)Nc2ccccc2N)cc1', '7.97 µM');

Would you kindly look at the next entry?
GET /values?item= `COc1cc(-c2csc(NC(=O)c3cc(C(F)(F)F)cc(C(F)(F)F)c3)n2)cc(OC)c1OC` &system= U251 CNS returns GI50: 2.7 µM

----------
Measured GI50 values are reported for all entries that follow.
tested on: T-47D breast; assay: NCI tumour cell line growth inhibition, 48 h

The cases that follow already have their GI50 on record.
INSERT INTO assay_data (smiles_notation, tested_on, meas_value) VALUES
  ('CC[C@H](C)[C@H](NC(=O)c1cnccn1)C(=O)N(C)[C@H](C[C@@H](OC(C)=O)c1nc(C(=O)N[C@@H](Cc2ccccc2)C[C@H](C)C(=O)OC)cs1)C(C)C', 'T-47D breast', '2480 nM'),
  ('CC1(C)N=C(N)N=C(N)N1c1ccc(CCc2ccccc2)c(Cl)c1', 'T-47D breast', '698 nM');

Would you kindly look at the next entry?
Reported GI50 of `COc1ccc(C(=O)N2c3ccccc3Sc3ccccc32)c(F)c1` : 639 nM

----------
tested on: NCI-H23 lung; test: NCI tumour cell line growth inhibition, 48 h
Measured TGI values are reported for all entries that follow.
Quick note: give the figure in µM, leave out the unit.

INSERT INTO measurements (molecule, measured_quantity, meas_value) VALUES
  ('O=P1(C(O)/C=C/c2ccccc2)N(Cc2ccccc2)[C@@H]2CCCC[C@H]2N1Cc1ccccc1 (stereo not given in full)', 'TGI', 21.5),
  ('NCCN(CCN(C(=O)Nc1ccccc1)c1ccccc1)C(=O)Nc1ccccc1', 'TGI', 63),
  ('C=C1CC(COc2ccc3c(C)c(C)c(=O)oc3c2C)(c2ccccc2)OC1=O (stereo not given)', 'TGI', 4.64),
  ('COC1/C=C/OC2(C)Oc3c(C)c(O)c4c(c3C2=O)C(=O)C=C(NC(=O)/C(C)=C\C=C\C(C)C(OC=O)C(C)C(O)C(C)C(OC(C)=O)C1C)C4=O (stereo not given)', 'TGI', 30.6);

Would you kindly look at the next entry?
Reported TGI of CCOc1ccc(NCC2CC/C(=C\C=C\c3ccccc3)C2=O)cc1 (stereo not given) : 39.3

----------
tested on: OVCAR-3 ovarian; assay: NCI tumour cell line growth inhibition, 48 h
Measured log10(TGI) values are reported for all entries that follow.
// do not treat as linear: log10 of TGI, unit µM

The cases that follow already have their log10(TGI) on record.
INSERT INTO assay_data (compound, tested_on, measured_quantity, meas_value) VALUES
  ('CC(=O)OC1CC2(O)C(CCC3(C)C(c4ccc(=O)oc4)CCC32O)C2(C)C1=CC(O)C1OC12 (centres undefined)', 'OVCAR-3 ovarian', 'log10(TGI)', -1.16),
  ('NS(=O)(=O)c1ccc(N2Cc3cc(Cl)ccc3OC3=C2C(=O)N(CC2CCCCC2)C3=O)cc1', 'OVCAR-3 ovarian', 'log10(TGI)', -0.37),
  ('Cc1cc([N+](=O)[O-])c(C)c2c1[nH]c1ccc(/C(CCC3CCCC3)=N\N)cc12', 'OVCAR-3 ovarian', 'log10(TGI)', 1.57);

Reported log10(TGI) of O=C1/C(=C/c2ccncc2)C(n2cccc2)c2c(Br)sc(Br)c21 (centres undefined) : 0.53

Reported log10(TGI) of `COc1cc2cc(Oc3ccc(NC(=O)c4cccc(C(F)(F)F)c4)cc3)c(C)nc2cc1OC` : 1.66

----------
test system: LXFL 529 NSCLC; test: NCI tumour cell line growth inhibition, 48 h
Measured TGI values are reported for all entries that follow.

The cases that follow already have their TGI on record.
INSERT INTO measurements (compound, measured_quantity, meas_value) VALUES
  ('Cc1cc(O)c2c(c1)C(O)(c1ccc3c(c1O)C(=O)c1c(O)cc(C)cc1C3(O)C1OC(CO)C(O)C(O)C1O)c1cccc(O)c1C2=O (configuration not stated)', 'TGI', '24.5 µM'),
  ('O=[N+]([O-])c1ccc(N=Nc2c(O)[nH]c3ccc([N+](=O)[O-])cc23)cc1', 'TGI', '26.4 µM'),
  ('COC(=O)c1nc(NN)[nH]c(=O)c1CCCCCc1c(C(=O)OC)[nH]c(NN)cc1=O', 'TGI', '> 100 µM'),
  ('O=C(CCc1nc(=S)[nH][nH]1)NC12CC3CC(CC(C3)C1)C2', 'TGI', '> 100 µM'),
  ('O=c1nc(-c2ccccc2)c2c3c(cccn13)CCC2', 'TGI', '> 100 µM');

GET /values?item= COc1ccc(OC)c(NC(=O)C(=O)C(C(=O)c2ccccc2F)C2OC(=O)c3ccccc32)c1 (configuration not stated) &system= LXFL 529 NSCLC returns TGI: > 100 µM

GET /values?item= COc1ccc(C(C2=C(C)C(=O)c3ccccc3C2=O)c2ccc(C(C)C)cc(=O)c2O)cc1 (configuration not stated) &system= LXFL 529 NSCLC returns TGI: > 100 µM

GET /values?item= COc1ccc(C2C(Cl)C(=O)N2n2cnc3ccccc3c2=O)cc1OC (configuration not stated) &system= LXFL 529 NSCLC returns TGI: > 100 µM

----------
tested on: NCI-H226 lung; assay: NCI tumour cell line growth inhibition, 48 h
Measured TGI values are reported for all entries that follow.
Quick note: give the figure in µM, leave out the unit.

INSERT INTO measurements (molecule, meas_value) VALUES
  ('COc1ccc(C(C2=C(C)C(=O)c3ccccc3C2=O)c2ccc(C(C)C)cc(=O)c2O)cc1 (stereo not given)', 4.94);

GET /values?item= O=C(O)C1=NN(c2ccc(S(=O)(=O)O)cc2)C2(C1)C(Cl)C(=O)N2c1nc2ccccc2s1 (stereo not given) &system= NCI-H226 lung returns TGI: 41.4

----------
system: K-562 leukemia; assay: NCI tumour cell line growth inhibition, 48 h
Measured quantity: GI50

The cases that follow already have their GI50 on record.
INSERT INTO results (compound, meas_value) VALUES
  ('COc1cc(Nc2ccnc(N3CCN(c4ccnc5cc(Cl)ccc45)CC3)n2)cc(OC)c1', '432 nM'),
  ('NS(=O)(=O)c1ccc(N2Cc3cc(Cl)ccc3OC3=C2C(=O)N(CC2CCCCC2)C3=O)cc1', '270 nM'),
  ('C[n+]1cc2c3c(ccc2c2ccc4cc5c(cc4c21)OCO5)OCO3', '470 nM'),
  ('CNC(=O)Nc1ccc(-c2nc(N3CCOCC3)nc3c2cnn3C2CCOCC2)cc1', '533 nM'),
  ('COc1cc(C2c3cc4c(cc3[C@@H](Nc3ccc(N(C)C)cc3)[C@H]3COC(=O)C23)OCO4)cc(OC)c1O (some centres undefined)', '2410 nM'),
  ('CSc1ccc(C2=Nn3c(nnc3-c3ccc(F)c(Cl)c3)SC2)cc1', '2280 nM');

Reported GI50 of Clc1ccc(COC(Cn2ccnc2)c2ccc(Cl)cc2Cl)cc1 (centres undefined) : 2800 nM

Reported GI50 of `COc1cc(-c2csc(NC(=O)c3cc(C(F)(F)F)cc(C(F)(F)F)c3)n2)cc(OC)c1OC` : 2750 nM

Reported GI50 of `O=C1/C(=C/c2ccc(Cl)cc2)CCCc2ccc(F)cc21` : 11100 nM
